Taken from patent US6020130.

- System under test: Taq DNA polymerase (UniProt P19821 P19821:1-832)
- Sequence (P19821 whole entry, one chain of several): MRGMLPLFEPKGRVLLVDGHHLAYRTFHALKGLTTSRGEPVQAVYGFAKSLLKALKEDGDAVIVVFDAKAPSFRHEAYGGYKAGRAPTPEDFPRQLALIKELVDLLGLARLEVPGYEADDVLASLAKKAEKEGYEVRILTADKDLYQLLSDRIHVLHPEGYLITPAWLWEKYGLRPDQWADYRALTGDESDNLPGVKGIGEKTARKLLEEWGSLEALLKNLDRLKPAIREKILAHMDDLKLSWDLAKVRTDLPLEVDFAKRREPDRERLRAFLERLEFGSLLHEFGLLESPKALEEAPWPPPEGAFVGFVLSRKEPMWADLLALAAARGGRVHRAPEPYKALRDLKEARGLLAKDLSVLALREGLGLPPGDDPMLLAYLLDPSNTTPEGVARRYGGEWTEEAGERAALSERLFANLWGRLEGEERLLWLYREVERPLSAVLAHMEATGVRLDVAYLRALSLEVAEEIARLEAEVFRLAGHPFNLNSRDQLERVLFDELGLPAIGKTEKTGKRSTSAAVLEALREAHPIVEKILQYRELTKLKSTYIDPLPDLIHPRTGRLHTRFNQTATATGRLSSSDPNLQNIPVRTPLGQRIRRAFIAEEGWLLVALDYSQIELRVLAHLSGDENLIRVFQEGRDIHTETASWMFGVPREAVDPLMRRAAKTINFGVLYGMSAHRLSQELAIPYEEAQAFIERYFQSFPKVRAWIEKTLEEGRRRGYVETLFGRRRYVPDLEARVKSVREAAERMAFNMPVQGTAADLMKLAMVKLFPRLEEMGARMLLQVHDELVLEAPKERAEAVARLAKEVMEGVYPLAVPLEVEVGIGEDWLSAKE
- Protocol description: inhibition; hairpin extension assay, monomer
- Condition context: tags: rTaq, 94 kDa, Roche Molecular Systems / Perkin Elmer; stem-loop
Measured attribute: IC50 (nM)
Report as a plain number; the unit nM is understood.

// field: IC50; key: GCCGGCCAATGTACAGTATTGGCCGGC (ssDNA) [Trnc.2-30] ; value = 48
